- ASSAY SYSTEM: Mucosa-associated lymphoid tissue lymphoma translocation protein 1 (Homo sapiens, UniProt Q9UDY8)
- Sequence (Q9UDY8 whole entry): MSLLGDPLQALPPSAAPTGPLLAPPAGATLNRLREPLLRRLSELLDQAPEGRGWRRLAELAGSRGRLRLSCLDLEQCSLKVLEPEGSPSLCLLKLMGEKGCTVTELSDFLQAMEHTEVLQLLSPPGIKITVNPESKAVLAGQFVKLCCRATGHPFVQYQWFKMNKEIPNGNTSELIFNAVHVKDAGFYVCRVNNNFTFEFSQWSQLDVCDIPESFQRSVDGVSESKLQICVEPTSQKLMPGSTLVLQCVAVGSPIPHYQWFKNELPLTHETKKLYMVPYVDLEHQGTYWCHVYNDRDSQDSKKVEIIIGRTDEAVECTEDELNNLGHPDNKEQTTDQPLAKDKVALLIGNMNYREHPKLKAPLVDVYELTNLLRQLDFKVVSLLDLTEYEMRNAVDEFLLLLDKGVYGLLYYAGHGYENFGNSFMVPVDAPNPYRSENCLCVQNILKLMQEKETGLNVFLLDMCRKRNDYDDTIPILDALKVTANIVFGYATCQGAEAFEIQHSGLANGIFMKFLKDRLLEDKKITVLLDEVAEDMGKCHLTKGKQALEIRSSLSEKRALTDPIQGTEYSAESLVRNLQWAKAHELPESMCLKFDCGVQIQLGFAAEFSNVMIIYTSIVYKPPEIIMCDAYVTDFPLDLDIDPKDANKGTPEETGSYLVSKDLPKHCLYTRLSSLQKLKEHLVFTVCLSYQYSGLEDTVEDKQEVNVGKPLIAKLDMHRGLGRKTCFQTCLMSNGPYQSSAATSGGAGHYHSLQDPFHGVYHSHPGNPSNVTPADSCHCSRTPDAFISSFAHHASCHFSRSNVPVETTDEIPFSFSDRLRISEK
- MEASUREMENT PROTOCOL: MALT1 Protease Assay 2
ASSAY ENDPOINT: IC50

TEST SMILES: C[C@@]1(C(F)(F)F)CN(C(=O)Nc2cnc(-n3nccn3)c(Cl)c2)c2cnc3c(F)c(F)nn3c21
IC50: < 10 nM

TEST SMILES: C[C@@]1(C(F)(F)F)CN(C(=O)Nc2cnc(N=S(C)(C)=O)c(Cl)c2)c2cnc3cc(Cl)nn3c21
IC50: < 10 nM

Given the compound C[C@@]1(C(F)(F)F)CN(C(=O)Nc2cc(C(F)F)ns2)c2cnc3cc(Cl)nn3c21 , write its reported IC50.
> 1000 nM

Every entry's value here was drawn from BindingDB's records for patent US20240018157.
